Where do these numbers come from? They come from the supplement of paper PMC11061612.

Test system: TE-8 (Esophageal Squamous Cell Carcinoma)
Assay Overview: combination Emax (second highest fraction inhibited in the dose matrix, 72 h); higher = more inhibition; extreme values may be limits of the assay
// reported combination Emax per item
Measure Name: combination Emax

>>> endpoint_value("CCc1c2c(nc3ccc(O)cc13)-c1cc3c(c(=O)n1C2)COC(=O)[C@]3(O)CC [SN-38] + CN(C)CCCOc1ccc(-c2ccc3ncc4c(c3c2)n(C2CCOCC2)c(=O)n4C)cn1 [AZD0156] (first compound max 0.3 µM, 7x7, partner max 1 µM)")
0.69
>>> endpoint_value("C[C@@H]1COCCN1c1cc(C2([S@](C)(=N)=O)CC2)nc(-c2ccnc3[nH]ccc23)n1 [AZD6738] + C1CC(C1)(C(=O)[O-])C(=O)[O-].N.N.[Pt+2] [Carboplatin] (first compound max 10 µM, 7x7, partner max 10 µM)")
0.522

====

Test system: RERF-GC-1B (Gastric Carcinoma)
Assay Overview: combination Emax (second highest fraction inhibited in the dose matrix, 72 h); higher = more inhibition; extreme values may be limits of the assay
// reported combination Emax per item
Measure Name: combination Emax

>>> endpoint_value("CN(CCO)CC[C@H](CSc1ccccc1)Nc1ccc(S(=O)(=O)NC(=O)c2ccc(N3CCC([C@@H](O)c4ccccc4-c4ccc(Cl)cc4)CC3)cc2)cc1S(=O)(=O)C(F)(F)F [AZD4320] + Cn1cnc2c(F)c(Nc3ccc(Br)cc3Cl)c(C(=O)NOCCO)cc21 [Selumetinib] (first compound max 1 µM, 7x7, partner max 3 µM)")
0.716
>>> endpoint_value("CCN(CCO)CCCOc1ccc2c(Nc3cc(CC(=O)Nc4cccc(F)c4)[nH]n3)ncnc2c1 [AZD2811] + O=C(c1cc(Cc2n[nH]c(=O)c3ccccc23)ccc1F)N1CCN(C(=O)C2CC2)CC1 [Olaparib] (first compound max 1 µM, 7x7, partner max 10 µM)")
0.316
>>> endpoint_value("COc1cc2ncnc(Nc3ccc(F)c(Cl)c3)c2cc1OCCCN1CCOCC1 [Gefitinib] + CC(C)n1c(=O)n(C)c2cnc3cc(F)c(-c4ccc(OCCCN5CCCCC5)nc4)cc3c21 [AZD1390] (first compound max 10 µM, 7x7, partner max 0.3 µM)")
0.265

====

System: COLO-680N (Esophageal Squamous Cell Carcinoma)
Assay Overview: combination Emax (second highest fraction inhibited in the dose matrix, 72 h); higher = more inhibition; extreme values may be limits of the assay
Measure Name: combination Emax

>>> endpoint_value("CC(=O)c1c(C)c2cnc(Nc3ccc(N4CCNCC4)cn3)nc2n(C2CCCC2)c1=O [Palbociclib] + CC1(C)CCC(CN2CCN(c3ccc(C(=O)NS(=O)(=O)c4ccc(NCC5CCOCC5)c([N+](=O)[O-])c4)c(Oc4cnc5[nH]ccc5c4)c3)CC2)=C(c2ccc(Cl)cc2)C1 [Venetoclax] (first compound max 10 µM, 7x7, partner max 1 µM)")
0.0584
>>> endpoint_value("NC1(C(=O)N[C@@H](CCO)c2ccc(Cl)cc2)CCN(c2ncnc3[nH]ccc23)CC1 [Capivasertib] + CCN(CCO)CCCOc1ccc2c(Nc3cc(CC(=O)Nc4cccc(F)c4)[nH]n3)ncnc2c1 [AZD2811] (first compound max 10 µM, 7x7, partner max 1 µM)")
0.195

====

System: LN-229 (Glioblastoma);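 note: after 72 h of two-drug dosing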
Assay Overview: Bliss excess, mean over the matrix (fraction); higher = more synergy
Measure Name: Bliss excess

>>> endpoint_value("CC1(C)CCC(CN2CCN(c3ccc(C(=O)NS(=O)(=O)c4ccc(NCC5CCOCC5)c([N+](=O)[O-])c4)c(Oc4cnc5[nH]ccc5c4)c3)CC2)=C(c2ccc(Cl)cc2)C1 [Venetoclax] + C=CCn1c(=O)c2cnc(Nc3ccc(N4CCN(C)CC4)cc3)nc2n1-c1cccc(C(C)(C)O)n1 [AZD1775] (first compound max 1 µM, partner max 1 µM)")
-0.0083
>>> endpoint_value("C=CCn1c(=O)c2cnc(Nc3ccc(N4CCN(C)CC4)cc3)nc2n1-c1cccc(C(C)(C)O)n1 [AZD1775] + C1CN(CCC1(C(=O)N[C@@H](CCO)C2=CC=C(C=C2)Cl)N)C3=NC=NC4=C3C=CN4 [Capivasertib] (first compound max 3 µM, partner max 3 µM)")
-0.062
>>> endpoint_value("CCN(CCO)CCCOc1ccc2c(Nc3cc(CC(=O)Nc4cccc(F)c4)[nH]n3)ncnc2c1 [AZD2811] + C=CCn1c(=O)c2cnc(Nc3ccc(N4CCN(C)CC4)cc3)nc2n1-c1cccc(C(C)(C)O)n1 [AZD1775] (first compound max 1 µM, partner max 1 µM)")
-0.0363
>>> endpoint_value("CN(C)CCCOc1ccc(-c2ccc3ncc4c(c3c2)n(C2CCOCC2)c(=O)n4C)cn1 [AZD0156] + O=C(c1cc(Cc2n[nH]c(=O)c3ccccc23)ccc1F)N1CCN(C(=O)C2CC2)CC1 [Olaparib] (first compound max 3 µM, partner max 3 µM)")
-0.0258
>>> endpoint_value("CC1(C)CCC(CN2CCN(c3ccc(C(=O)NS(=O)(=O)c4ccc(NCC5CCOCC5)c([N+](=O)[O-])c4)c(Oc4cnc5[nH]ccc5c4)c3)CC2)=C(c2ccc(Cl)cc2)C1 [Venetoclax] + COc1cc(Nc2ncc3c(n2)-c2ccc(Cl)cc2C(c2c(F)cccc2OC)=NC3)ccc1C(=O)O [Alisertib] (first compound max 1 µM, 7x7, partner max 10 µM)")
-0.041
>>> endpoint_value("Cc1cc2ncnn2cc1Nc1ncc2c(n1)n(C1CCOCC1)c(=O)n2C [AZD7648] + CCN(CCO)CCCOc1ccc2c(Nc3cc(CC(=O)Nc4cccc(F)c4)[nH]n3)ncnc2c1 [AZD2811] (first compound max 10 µM, 7x7, partner max 1 µM)")
0.0148
>>> endpoint_value("COc1nnc2ccc(N3CCC(c4ccc(OCCN5CCN(C)C(=O)[C@H]5C)cc4)CC3)nn12 [AZD5153] + CCN(CCO)CCCOc1ccc2c(Nc3cc(CC(=O)Nc4cccc(F)c4)[nH]n3)ncnc2c1 [AZD2811] (first compound max 1 µM, 7x7, partner max 1 µM)")
0.0112
